- SYSTEM_TESTED: protein kinase C gamma (Homo sapiens, UniProt P05129)
- TEST: PKC Enzyme assay, gamma isozyme
- Type: biochemical
- TEST_PARAMETERS: PKC gamma; 30 μM ATP, 30° C., 10 minutes; read-out: IC50 γ
REPORTED_METRIC: IC50 (µM)

CC(=O)OCC1(COC(C)=O)CCn2c(c(C3=C(c4cn(C)c5ccccc45)C(=O)NC3=O)c3ccccc32)C1 [Example 1]    38

A = Cn1cc(C2=C(c3cn(CCOC4OC(CN)C(O)C(O)C4O)c4ccccc34)C(=O)NC2=O)c2ccccc21 (centres unmarked) [Example 66]
B = CCOC(=O)N1CCC(Cn2cc(C3=C(c4cn(C)c5ccccc45)C(=O)NC3=O)c3ccccc32)CC1 [Example 69]
-- ask Hey, between A and B which has a smaller measured IC50? Record your answer as the label of the chosen record.
-- reply B
